# assayed-target: CDK14 (human) (UniProt O94921)
# Sequence (O94921 whole entry, looked up): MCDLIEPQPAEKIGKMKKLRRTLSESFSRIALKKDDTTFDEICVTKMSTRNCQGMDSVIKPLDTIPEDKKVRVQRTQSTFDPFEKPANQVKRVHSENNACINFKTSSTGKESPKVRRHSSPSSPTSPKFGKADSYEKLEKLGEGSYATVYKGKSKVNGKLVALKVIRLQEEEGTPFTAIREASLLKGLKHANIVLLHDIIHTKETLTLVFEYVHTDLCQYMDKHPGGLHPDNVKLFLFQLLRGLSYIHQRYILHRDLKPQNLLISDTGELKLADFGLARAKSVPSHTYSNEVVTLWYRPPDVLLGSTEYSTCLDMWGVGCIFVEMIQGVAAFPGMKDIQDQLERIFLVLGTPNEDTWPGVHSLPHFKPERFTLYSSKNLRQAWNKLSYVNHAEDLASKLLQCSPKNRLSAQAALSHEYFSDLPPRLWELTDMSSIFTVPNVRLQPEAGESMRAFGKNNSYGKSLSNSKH
# test-name: KINOMEscan competition binding
# experimental-context: compound 10.0 µM

{"columns": ["given-smiles", "kinase still bound, per cent of control"],
 "data": [
  ["COc1cc(N2CCC(N3CCN(C)CC3)CC2)ccc1Nc1ncc(Cl)c(Nc2ccccc2S(=O)(=O)C(C)C)n1", "40%"],
  ["CCOc1cc(N2CCC(N3CCCCC3)CC2)ccc1Nc1nc(Nc2ccccc2S(=O)(=O)C(C)C)c2cn[nH]c2n1", "100%"],
  ["CCN1CCN(Cc2ccc(NC(=O)c3ccc(C)c(Oc4ccnc5[nH]ccc45)c3)cc2C(F)(F)F)CC1", "0.4%"],
  ["CCN1CCN(Cc2ccc(NC(=O)c3ccc(C)c(/C=C/c4cnc(Nc5cc(N6CCNCC6)nc(C)n5)cn4)c3)cc2C(F)(F)F)CC1", "88%"]
]}
